Where do the numbers come from? From patent US20250277029A1.

Listing of recorded n = 1 IC50 (nM), cAMP antagonist assay by entry.
molecular target: human cannabinoid receptor 1 (huCB1), full length, expressed on cells (human, UniProt P21554 1-472); test: cell-based or functional assay
Sequence (P21554 whole entry): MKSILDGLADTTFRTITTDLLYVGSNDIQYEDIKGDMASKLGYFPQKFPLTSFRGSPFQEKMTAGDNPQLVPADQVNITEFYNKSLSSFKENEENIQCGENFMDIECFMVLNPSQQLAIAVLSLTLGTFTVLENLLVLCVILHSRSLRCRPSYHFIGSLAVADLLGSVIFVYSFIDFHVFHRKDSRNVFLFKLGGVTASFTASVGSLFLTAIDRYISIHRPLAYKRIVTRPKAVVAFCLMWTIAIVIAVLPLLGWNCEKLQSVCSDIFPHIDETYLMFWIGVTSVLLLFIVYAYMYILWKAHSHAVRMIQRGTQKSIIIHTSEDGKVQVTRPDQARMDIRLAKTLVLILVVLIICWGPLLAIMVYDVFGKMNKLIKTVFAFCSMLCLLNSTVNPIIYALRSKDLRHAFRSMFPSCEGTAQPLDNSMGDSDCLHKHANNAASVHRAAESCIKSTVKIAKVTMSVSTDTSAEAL

- binder: "LIBC527879-1 (antibody, V domains shown) VH: QVQLQESGPGLVKPSQTLSLTCTVSGGSIRRGGDYWGWIRQHPGKGLEWIGHIYQSGSTNYNPKLKSRATISVDTYKNQFSLKLSSVTAADTAVYYCARDYDIFTGYSYYYYGMDVWGQGTTVTVSS VL: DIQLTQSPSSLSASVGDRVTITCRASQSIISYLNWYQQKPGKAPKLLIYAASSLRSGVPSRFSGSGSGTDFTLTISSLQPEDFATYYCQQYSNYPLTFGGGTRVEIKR"
  quantityUnit: "nM"
  n = 1 IC50 (nM), cAMP antagonist assay: 6.12
- binder: "LIBC523862-1 (antibody, V domains shown) VH: QVQLQESGPGLVKPSQTLSLTCTVSGGSIRRGGDYWSWIRQHPGKGLEWIGHIYQTGSTAYNPSLKGRATISVNTYKNQFSLKLSSVTAADTAVYYCARDYDILTGYSYYYYGMDVWGQGTTVTVSS VL: DIVMTQSPLSLPVTPGEPASISCRSSQSLLHSTGANYVDWYLQKPGQSPQLLIYLGSNRASGVPDRFSGSGSGTDFTLKISRVEAEDVGVYYCRQAIALPRTFGQGTKVEIKR"
  quantityUnit: "nM"
  n = 1 IC50 (nM), cAMP antagonist assay: 11.2
- binder: "LIBC523603-1 (antibody, V domains shown) VH: QVQLQESGPGLVKPSQTLSLTCTVSGGSIRRGGDYWAWIRQHPGKGLEWIGHVYQSGQTAYNPNFENRATISVNTYKNQFSLKLSSVTAADTAVYYCARDYDAVSGYSYYYYGMDVWGQGTTVTVSS VL: DIVMTQSPLSLPVTPGEPASISCRSSQSLLSSYGNNYVDWYLQKPGQSPQLLIYQGSNRASGVPDRFSGSGSGTDFTLKISRVEAEDVGVYYCRQAVGLPRTFGQGTKVEIKR"
  quantityUnit: "nM"
  n = 1 IC50 (nM), cAMP antagonist assay: 7.29
